Molecular target: human M4 muscarinic acetylcholine receptor (Homo sapiens)
Sequence (P08173 whole entry): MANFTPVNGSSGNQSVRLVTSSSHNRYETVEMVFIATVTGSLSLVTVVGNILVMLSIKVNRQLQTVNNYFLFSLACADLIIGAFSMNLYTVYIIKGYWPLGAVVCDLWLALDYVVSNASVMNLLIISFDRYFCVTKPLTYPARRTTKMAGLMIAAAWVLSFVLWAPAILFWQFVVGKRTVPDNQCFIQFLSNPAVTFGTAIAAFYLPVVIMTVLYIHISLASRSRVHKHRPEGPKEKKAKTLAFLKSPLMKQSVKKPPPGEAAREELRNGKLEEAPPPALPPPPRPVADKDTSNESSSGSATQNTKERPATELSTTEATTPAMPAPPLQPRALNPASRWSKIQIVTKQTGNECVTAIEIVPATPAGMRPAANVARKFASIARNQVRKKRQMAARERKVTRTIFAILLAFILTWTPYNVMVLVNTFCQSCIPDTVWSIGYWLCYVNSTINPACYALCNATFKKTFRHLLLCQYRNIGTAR
Assay: human FLIPR-based M4 PAM assay (Ca2+ mobilization, CHO-K1 cells with human M4 receptor and Gαqi5)
Conditions: acetylcholine at 20% of maximum response, read-out: M4 PAM IP
pEC50: −log10 of the molar value.
EXPERIMENTAL READOUT: pEC50

Consider the reported pEC50 for these compounds:
COMPOUND	pEC50
Cc1cc2c(nc1N1CC[C@@H](Oc3ccc4c(cnn4C)c3)[C@@H](F)C1)[C@@H](CO)N(C)C2=O	7.36
Cc1cc2c(nc1N1CCC(Oc3ccccc3)CC1)CN(CCO)C2=O	7.29
CO[C@@H]1Cc2ccc(OC3CCN(c4nc5c(c(C)c4C)C(=O)NC5)CC3)cc2C1 [Example 335A]	6.61

[1] Cc1cc2c(nc1N1CCC(OCC3(C)CC3C#N)CC1)CNC2=O (single isomer, unassigned) [Example 193A]
[2] Cc1cc2c(nc1N1CCC(Oc3ccc4c(c3)OCCN4)CC1)CNC2=O
[Q] Lab note: check whether 1 or 2 shows the higher recorded pEC50. Write down the label of the entry you select.
[A] 2

The origin of these recorded values is patent US10329289B2.
